# System: PBMC-derived induced microglia-like cells (piMGLC)
# ASSAY INFO: synaptosome phagocytic index relative to DMSO control (fraction of DMSO); higher = more phagocytosis
# CONDITIONS: concentration: 10 uM (2 uM for compounds listed in Table S2); pretreatment time: 24 h; assay time: 3 h
Structures can show the parent of a compound that is named as a salt.
Hi there, I'd appreciate the recorded synaptosome phagocytic index for every entry that follows.
Give bare numbers.

Below, each entry is followed by its recorded synaptosome phagocytic index result.
C[C@@H]1CN(C(=O)[C@@H]2CN(C(C)(C)C)C[C@H]2c2ccc(F)cc2F)C[C@H](C)[C@@]1(O)c1ccccc1
0.704
CC(C)CCn1c(CN2CCN(C(=O)C3CC3)CC2)nc2c1c(=O)n(C)c(=O)n2C
0.707
O=C(CCCN1CCC(O)(c2ccc(Cl)cc2)CC1)c1ccc(F)cc1
1.05

// each molecule listed below needs its synaptosome phagocytic index
1. Cc1ccc(S(=O)(=O)/C=C/C#N)cc1
2. C[C@@H](Nc1nc(N[C@H](C)C(F)(F)F)nc(-c2cccc(Cl)n2)n1)C(F)(F)F
3. Cc1cccc(C)c1OCC(=O)N[C@@H](Cc1ccccc1)[C@@H](O)C[C@H](Cc1ccccc1)NC(=O)[C@H](C(C)C)N1CCCNC1=O
4. CO/N=C(\C(=O)N[C@@H]1C(=O)N2C(C(=O)O)=C(C[N+]3(C)CCCC3)CS[C@H]12)c1csc(N)n1 [Cefepime_(Dihydrochloride_Monohydrate)]
5. O=C(c1ccc(F)cc1)N1CCC[C@H](c2nc(-c3ccc(F)cc3)no2)C1
6. CN(C)CCC=C1c2ccccc2CCc2ccccc21 [Amitriptyline_(hydrochloride)]
7. Cc1cc(NS(=O)(=O)c2ccc(N)cc2)no1
8. C=C[C@H]1CN2CC[C@H]1C[C@@H]2[C@@H](O)c1ccnc2ccc(OC)cc12

1. 0.903
2. 0.481
3. 0.253
4. 0.597
5. 0.938
6. 0.997
7. 1.17
8. 0.962

Provide synaptosome phagocytic index for all items below, preserving their order.
1. CC(C(=O)O)c1ccc(-c2ccccc2)c(F)c1 (stereo unspecified)
2. Cc1c(N)c(=O)n(-c2ccccc2)n1C
3. CCc1cc2c(cc1N1CCC(N3CCOCC3)CC1)C(C)(C)c1[nH]c3cc(C#N)ccc3c1C2=O [Alectinib_(Hydrochloride)]
4. CCOC(=O)C1=CCCC[C@H]1S(=O)(=O)Nc1ccc(F)cc1Cl
5. Cn1cc2cc(C(F)(F)c3nnc4ccc(-c5cnn(C6CC6)c5)nn34)c(F)cc2n1
6. COCc1ccc(-c2ccc(N(C[C@@H](N)[C@@H](C)OC)C(=O)[C@@H]3C[C@H]3c3ccccn3)cc2)cc1
7. Nc1cccc2c1C(=O)N(C1CCC(=O)NC1=O)C2=O (stereo unspecified) [Pomalidomide]
8. CC[C@]1(O)C[C@H]2CN(CCc3c([nH]c4ccccc34)[C@@](C(=O)OC)(c3cc4c(cc3OC)N(C=O)[C@H]3[C@@](O)(C(=O)OC)[C@H](OC(C)=O)[C@]5(CC)C=CCN6CC[C@]43[C@@H]65)C2)C1 [Vincristine_(sulfate)]

1: 0.64; 2: 0.708; 3: 0.192; 4: 0.156; 5: 0.851; 6: 0.794; 7: 0.545; 8: 1.04

For each listed entry, give its synaptosome phagocytic index.
1. Cc1cc(=O)n(-c2ccccc2)n1C [Antipyrine]
2. Cn1cc(-c2ccncc2)c(-c2ccc(OCc3ccc4ccccc4n3)cc2)n1 [Mardepodect_(hydrochloride)]
3. OCCN1CCN(CCCN2c3ccccc3Sc3ccc(Cl)cc32)CC1
4. CCN(C(=O)c1c(O)c2c(Cl)cccc2n(C)c1=O)c1ccccc1
5. Clc1cccc(CN=C2Nc3ccccc3NC23CCNCC3)c1
6. CCN(CC)C(=S)SSC(=S)N(CC)CC

[0.601, 0.503, 0.197, 0.888, 1.31, 0.784]

Form field: synaptosome phagocytic index recorded for O=C1Nc2ccc(Cl)cc2[C@@](C#CC2CC2)(C(F)(F)F)O1 with PBMC-derived induced microglia-like cells (piMGLC) (enter value)
0.473
